assay: Agilent ZORBAX 300 SB-C18, 150 × 1 mm, 3.5 µm; A: water + 0.01% heptafluorobutyric acid; B: acetonitrile + 0.01% heptafluorobutyric acid; gradient (min/%B) 0/0 100/90; conditions: stereoisomer not certain
MEASUREMENT_LABEL: LC retention time (min)

As a guide, the following entries are already answered.
INSERT INTO assay_data (compound, measurement_label, numeric_value) VALUES
  ('CCN(CC)CC(CP(=O)(O)O)P(=O)(O)O (stereo unspecified)', 'LC retention time', 1.13),
  ('Cc1ccc(-c2csc(-c3cccnc3)n2)cc1C', 'LC retention time', 11.3),
  ('COc1ccc2c(c1)C(C)N1C(=O)c3ccccc3C1O2 (stereo unspecified)', 'LC retention time', 13.9);

[a] c1ccc2nccnc2c1
[b] Cc1ccc(C=C2C(=O)c3ccccc3C2=O)o1
q: Please let me know which one, a or b , has a lower measured LC retention time value. The response must carry the label of the picked entry.
a: a
(a: 8.94 min, b: 15.1 min)

[P] CN(C)c1ccc(CNC2CC(C)(C)NC(C)(C)C2)cc1
[Q] Cn1c2ccccc2c2nc3ccccc3nc21
[R] CN1CC(C(=O)O)CC1=O (stereo unspecified)
q: Arrange the 3 entries by LC retention time so the values rise. Labels, ranked as asked.
a: R, P, Q
(R: 3.04 min, P: 8.12 min, Q: 14.5 min)

[a] CC1CC(C)(C)Nc2c(O)cccc21 (stereo unspecified)
[b] Cc1ccc(-c2nc3ccccc3s2)cc1
q: Just curious, which one has the larger LC retention time reading, a or b ? The response must carry the label of the picked entry.
a: b

[I] O=C1CCNc2cc3ccccc3cc21
[II] Cc1ccc(N)cc1C(=O)O
[III] COc1ccccc1NC(=O)c1ccc(COc2ccc3c(c2)CCC3)cc1
q: Arrange the 3 entries by LC retention time so the values rise. Labels, ranked as asked.
a: II, I, III
(II: 7.34 min, I: 12.1 min, III: 19.2 min)
